The measurements presented in this section are drawn from ChEMBL document CHEMBL1201862.

Tested on: EKVX
Protocol Text: NCI tumour cell line growth inhibition, 48 h
Calls of active or inactive are those of the source. No stated cut-off is given here; in the data, active = GI50 up to about 1.1 µM and inactive = higher.
Labels: active, inactive

- Compound: "S=C(NCCc1ccccn1)N/N=C(\\c1ccccc1)c1ccccn1"
  Assigned Class: "active"
- Compound: "COC(=O)[C@@H](NC(=O)N(Cc1ccccc1)C[C@H](CC(C)C)NC(=O)[C@@H](NC(=O)OC(C)(C)C)C(C)C)C(C)C"
  Assigned Class: "inactive"
- Compound: "Cc1ccc(C2(c3ccc(F)cc3)OC(=O)c3ccccc32)c(O)c1 (centres undefined)"
  Assigned Class: "inactive"
- Compound: "C[C@H](CCC(=O)O)[C@H]1CC[C@H]2[C@@H]3[C@H](O)C[C@@H]4C[C@H](O)CC[C@]4(C)[C@H]3CC[C@]12C"
  Assigned Class: "inactive"

###

Tested on: 786-0
Protocol Text: NCI tumour cell line growth inhibition, 48 h
The source made the active and inactive calls. Rule as the data show it: active = GI50 up to about 1.1 µM and inactive = higher.

- Molecule: "Cc1[nH]c(/C=C2\\C(=O)Nc3ccccc32)c(C)c1CCC(=O)O [ORANTINIB]"
  GI50: "51.4 µM (inactive)"
- Molecule: "CCc1ccc(/N=C\\c2cc(OC)c(OC)c(OC)c2)cc1"
  GI50: "> 100 µM (inactive)"
- Molecule: "CN(C)CCn1c2ccccc2c2nc3cc4ccccc4cc3nc21"
  GI50: "3.23 µM (inactive)"
- Molecule: "Cc1n[nH]c(=O)n1/N=C\\c1ccccc1"
  GI50: "> 100 µM (inactive)"
- Molecule: "NCC(=O)NC(CO)C(=O)O (stereo unspecified)"
  GI50: "> 100 µM (inactive)"
- Molecule: "COc1ccc2[nH]cc(C=C3C(=O)NC(=S)NC3=O)c2c1"
  GI50: "31.6 µM (inactive)"
- Molecule: "Nc1ccc(C(=O)NN2C(=O)C(Cl)C2c2ccccc2O)cc1 (stereo unspecified)"
  GI50: "30.2 µM (inactive)"
- Molecule: "Cc1c(CCCl)c(N=P(c2ccccc2)(c2ccccc2)c2ccccc2)n2c(nc3ccccc32)c1C#N"
  GI50: "> 10 µM (inactive)"
- Molecule: "COc1ccc(N2C(=O)c3c4c(c5c([nH]c6ncccc65)c3C2=O)CCC(C(C)(C)C)C4)cc1 (stereo unspecified)"
  GI50: "35.6 µM (inactive)"
- Molecule: "Nc1ncc(Cc2nc3ccccc3s2)s1"
  GI50: "> 100 µM (inactive)"
- Molecule: "NC(Cc1nnn[nH]1)C(=O)O (stereo unspecified)"
  GI50: "> 100 µM (inactive)"

###

Test system: A498
Protocol Text: NCI tumour cell line growth inhibition, 48 h
The source made the active and inactive calls. No stated cut-off is given here; in the data, active = GI50 up to about 1.1 µM and inactive = higher.
Labels: active, inactive

- Molecule: "CC1(C)C[C@H]2C=C(C=O)[C@]34C[C@]3(C(=O)OC4O)[C@H]2C1 (stereo partly specified)"
  Assigned Class: "inactive"
- Molecule: "Cc1ccc(C2(c3ccc(F)cc3)OC(=O)c3ccccc32)c(O)c1 (stereo unspecified)"
  Assigned Class: "inactive"
- Molecule: "CC/C(=C/OC)P1(=O)OC(C)(C)CN1C(C)(C)C (stereo unspecified)"
  Assigned Class: "inactive"
- Molecule: "C=C1C[C@]23CCC4C(C)(C)C(=O)CC[C@]4(C)C2C[C@H]1C(O)C3=O (stereo partly specified)"
  Assigned Class: "inactive"
- Molecule: "CCOC(=O)c1ncn(CCc2ccc(Cl)cc2)c1C"
  Assigned Class: "inactive"
- Molecule: "Cc1cc2c3ccccc3n(C)c2c2c1C(=O)c1ccccc1C2=O"
  Assigned Class: "inactive"
- Molecule: "COc1ccc(CNc2nc3ccccc3nc2-c2cccs2)cc1"
  Assigned Class: "inactive"
- Molecule: "CCOC(=O)Cc1csc(Nc2ccc(OCC)cc2)n1"
  Assigned Class: "inactive"
- Molecule: "BrCC[N+]12CCCN1CCC2"
  Assigned Class: "inactive"
- Molecule: "N#Cc1ccnc(C(=O)N2CCCC2C(=O)O)c1 (stereo unspecified)"
  Assigned Class: "inactive"
- Molecule: "O=P(O)(O)CN1CCN(CP(=O)(O)O)CCN(CP(=O)(O)O)CCN(CP(=O)(O)O)CC1"
  Assigned Class: "inactive"
- Molecule: "CC1=C2O[C@]3(O)C=C2C(=C(O)C1=O)[C@@H]1O[C@H](CC[C@H](C)/C=C(\\C)C[C@@H](C)C[C@@H]3C)[C@H](C)[C@H](O)[C@H]1C [KENDOMYCIN]"
  Assigned Class: "inactive"
- Molecule: "COc1ccc(Nc2nc3ccccc3nc2-c2cccs2)cc1"
  Assigned Class: "inactive"
- Molecule: "C=C1C(=O)O[C@@H]2C[C@@H]3[C@]4(CC[C@]5(C)[C@@H]([C@H](C)CC/C=C(\\C)C=O)CC[C@@]35C)C[C@]4(CCC(=O)OC)[C@H]12"
  Assigned Class: "inactive"
- Molecule: "COC(=O)C(C(=O)C(=O)Nc1c(Cl)cc([N+](=O)[O-])cc1Cl)c1nc2cc(C)c(C)cc2nc1O (stereo unspecified)"
  Assigned Class: "inactive"
- Molecule: "COc1cc(OC2OC(COC(=O)c3cc(O)c(O)c(O)c3)C(O)C(O)C2O)ccc1O (stereo unspecified)"
  Assigned Class: "inactive"
- Molecule: "O=C(OC1=CCN(Br)C1=O)C1=C(O)C(=O)N(Br)C1"
  Assigned Class: "inactive"
- Molecule: "C=CC(=O)NC(=N)NC#N"
  Assigned Class: "inactive"
- Molecule: "COc1ccccc1NC(=S)N/N=C/c1ccccn1"
  Assigned Class: "active"
- Molecule: "Cc1cc(C)c(N[S+]([O-])c2cccc(Cl)c2)c(C)c1 (stereo unspecified)"
  Assigned Class: "inactive"
- Molecule: "C/C=C(/C)C(=O)O[C@H]1C(C)=C[C@]23C(=O)[C@@H](C=C(COC(C)=O)[C@@H](O)[C@]12O)[C@H]1[C@@H](C[C@H]3C)[C@@]1(C)OC(=O)/C(C)=C\\C"
  Assigned Class: "inactive"
- Molecule: "N/C(S)=N/N=C/c1ccc(O)cn1"
  Assigned Class: "inactive"
- Molecule: "CC(=O)NC1(C)CCC(C(C)(C)NC(C)=O)CC1 (stereo unspecified)"
  Assigned Class: "inactive"
- Molecule: "O=c1cc(N2CCOCC2)n2c(ccc3ccccc32)n1"
  Assigned Class: "inactive"
- Molecule: "O=C1c2ccccc2CC12Cc1cc3c(cc1C2=O)CCC3 (stereo unspecified)"
  Assigned Class: "inactive"
- Molecule: "CCC(C)C(NC(=O)C(CCCCN)NC(=O)C(NC(=O)C(CCC(N)=O)NC(=O)C(CCCNC(=N)N)NC(C)=O)C(C)CC)C(=O)NC(Cc1c[nH]c2ccccc12)C(=O)NC(Cc1ccccc1)C(=O)NC(CCC(N)=O)C(=O)NC(CC(N)=O)C(=O)NC(CCCNC(=N)N)C(=O)NC(CCCNC(=N)N)C(=O)NC(CCSC)C(=O)NC(CCCCN)C(=O)NC(Cc1c[nH]c2ccccc12)C(=O)NC(CCCCN)C(=O)NC(CCCCN)C(N)=O (stereo unspecified)"
  Assigned Class: "inactive"
- Molecule: "CCCCCC/C=C\\CCCCCCCCCC1=CC(=O)C=C(OC)C1=O [IRISQUINONE A]"
  Assigned Class: "inactive"
- Molecule: "O=C(/C=C/c1ccccc1)c1ccc(Cl)cc1Cl"
  Assigned Class: "inactive"
- Molecule: "O=C(c1ccco1)N(C(=S)OCCOc1ccccc1)c1ccccc1"
  Assigned Class: "inactive"
- Molecule: "Oc1cnnc2nc3ccccc3n12"
  Assigned Class: "inactive"
- Molecule: "COc1cc(Nc2cnc3cc(F)c(F)cc3n2)cc(OC)c1"
  Assigned Class: "inactive"

###

Documented GI50 across a set of molecules
Test system: SN12C
Protocol Text: NCI tumour cell line growth inhibition, 48 h
Active and inactive are the calls of the source. Rule as the data show it: active = GI50 up to about 1.1 µM and inactive = higher.

- Molecule: "O=C(O)CCC1CCc2cccc(OCC(=O)O)c2C1=O (stereo unspecified)"
  Tgt: "SN12C"
  GI50: "> 100 µM (inactive)"
- Molecule: "Cc1cc2nnc(C(N)=O)c(N)c2cc1C"
  Tgt: "SN12C"
  GI50: "> 100 µM (inactive)"
- Molecule: "CC(=O)N1OC(C)CC1Nc1ccc(Br)cc1 (stereo unspecified)"
  Tgt: "SN12C"
  GI50: "20.8 µM (inactive)"
- Molecule: "C=C1CC(c2ccc(O)c(OC)c2)Oc2c(OC)cccc21 (stereo unspecified)"
  Tgt: "SN12C"
  GI50: "34.4 µM (inactive)"
- Molecule: "Cc1cc(S(=O)(=O)Nc2nc(N)n[nH]2)c(Cl)cc1Cl"
  Tgt: "SN12C"
  GI50: "> 10 µM (inactive)"
- Molecule: "O=C(CCC=C(S(=O)(=O)c1ccccc1)S(=O)(=O)c1ccccc1)c1ccccc1"
  Tgt: "SN12C"
  GI50: "3.26 µM (inactive)"
- Molecule: "CN(CCNC(=O)c1nn(-c2ccc(Cl)cc2Cl)c2c1Cc1ccccc1-2)CCNC(=O)c1nn(-c2ccc(Cl)cc2Cl)c2c1Cc1ccccc1-2"
  Tgt: "SN12C"
  GI50: "3.79 µM (inactive)"
- Molecule: "COC(=O)[C@]1(c2cc3ccccc3n2S(=O)(=O)c2ccccc2)CC2CCC1NC2 (stereo partly specified)"
  Tgt: "SN12C"
  GI50: "15.7 µM (inactive)"
- Molecule: "COC(=O)/C(C#N)=C1\\NN=NN1CCCN1CCOCC1"
  Tgt: "SN12C"
  GI50: "> 100 µM (inactive)"
- Molecule: "CSc1nc(-c2ccccc2)nc(C(C#N)C#N)n1"
  Tgt: "SN12C"
  GI50: "> 100 µM (inactive)"
- Molecule: "NC(=O)C1N=NSC1NC(=O)c1ccc([N+](=O)[O-])cc1 (stereo unspecified)"
  Tgt: "SN12C"
  GI50: "47.5 µM (inactive)"
